testTarget: 5-HT1A receptor (Sus scrofa, UniProt A0A4X1UTF5)
Construct: Swine hippocampus was homogenized in a 50 mM Tris-Hcl buffer; from tissue; host or cells: swine hippocampus, membrane fraction
Sequence (A0A4X1UTF5 1-422): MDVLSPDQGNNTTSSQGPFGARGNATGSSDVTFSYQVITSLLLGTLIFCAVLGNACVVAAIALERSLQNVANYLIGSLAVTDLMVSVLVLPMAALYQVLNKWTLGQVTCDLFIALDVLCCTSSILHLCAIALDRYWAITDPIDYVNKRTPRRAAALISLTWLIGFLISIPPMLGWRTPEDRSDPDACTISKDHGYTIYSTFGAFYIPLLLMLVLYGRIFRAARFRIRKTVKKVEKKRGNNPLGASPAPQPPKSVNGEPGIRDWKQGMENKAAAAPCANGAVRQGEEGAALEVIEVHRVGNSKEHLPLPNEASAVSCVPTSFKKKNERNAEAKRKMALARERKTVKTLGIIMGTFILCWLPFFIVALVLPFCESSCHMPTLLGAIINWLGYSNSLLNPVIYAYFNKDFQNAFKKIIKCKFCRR
method: Affinity for serotonin 1A receptor: inhibition of [3H]MPPF binding in swine hippocampal membrane fraction
conditionNotes: [3H]MPPF 0.5 nM, swine hippocampal membrane, receptor in low affinity (G-protein non-binding, Gpp(NH)p 1 mM) state, 37°C 30 min; read-out: Low affinity IC50
endpoint: pIC50
Kindly note that pIC50 refers to -log10 of the concentration in mol/L and answer with the value alone.

# input Provide only the value of recorded pIC50 for COc1ccc2ncccc2c1CCN1CCC(n2ccc3ccc(C(N)=O)cc32)CC1
# output 9.72

# input Please report the measured pIC50 for COc1ccc2c(c1CCN1CCC(n3ccc4ccc(C(N)=O)cc43)CC1)OCCC2=O
# output 9.64

# input For the compound COc1ccc2c(c1CCN1CCC(n3ccc4ccc(C(N)=O)cc43)CC1)OC1(CCOCC1)CC2=O , give its measured pIC50 value.
# output 9.82

# input Item COCC1(C)CC(=O)c2ccc(OC)c(CCN3CCC(n4ccc5ccc(C(N)=O)cc54)CC3)c2O1 (centres unmarked) : provide pIC50
# output 9.77

# input Give the reported value of pIC50 for this record: COc1ccc2c(c1CCN1CCC(n3ccc4ccc(C(N)=O)cc43)CC1)CCCN2C(C)=O
# output 9.89

# input Identify measured pIC50 corresponding to COc1ccc2c(=O)ccoc2c1CCN1CCC(n2ccc3ccc(C(N)=O)cc32)CC1
# output 9.64

# input Identify the reported pIC50 for the following entry. COc1ccc2cccnc2c1CCN1CCC(n2ccc3ccc(C(N)=O)cc32)CC1
# output 9.52

# input Quote pIC50 reported for COc1cc2c(cc1CCN1CCC(n3ccc4ccc(C(N)=O)cc43)CC1)N(C(C)=O)CCC2 please.
# output 9.70

# input Quickly give me recorded pIC50 for CNC(=O)c1ccc2ccn(C3CCN(CCc4c(OC)ccc5c4OC(C)(C)CC5=O)CC3)c2c1
# output 9.80

# input Given the compound COc1cc2nc(C)oc2cc1CCN1CCC(n2ccc3ccc(C(N)=O)cc32)CC1 , write its reported pIC50.
# output 9.64

# input Quick one: give measured pIC50 for COc1ccc2c(c1CCN1CCC(n3ccc4ccc(C(N)=O)cc43)CC1)CCC2O (centres unmarked)
# output 9.57

Taken from patent US20050256103A1.
